The reported measurements were obtained from paper PMC12059926.

# Experimental Target: MMP-9 enzyme (Homo sapiens)
# Construct: purchased Enzo Life Sciences Inc. (Farmingdale, NY, USA)
# Sequence (P14780 107-444 limits assumed): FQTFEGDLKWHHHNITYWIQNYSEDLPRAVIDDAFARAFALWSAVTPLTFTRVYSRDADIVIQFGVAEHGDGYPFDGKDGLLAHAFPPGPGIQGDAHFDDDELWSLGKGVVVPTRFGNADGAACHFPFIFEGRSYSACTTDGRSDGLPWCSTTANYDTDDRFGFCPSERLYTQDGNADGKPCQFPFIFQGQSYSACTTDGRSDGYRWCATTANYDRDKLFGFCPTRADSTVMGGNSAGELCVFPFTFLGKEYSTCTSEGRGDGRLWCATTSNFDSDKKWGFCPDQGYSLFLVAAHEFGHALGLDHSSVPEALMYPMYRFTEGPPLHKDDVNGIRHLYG
# Protocol Summary: MMP-9 enzyme inhibition, colorimetric kit
# Assay type: biochemical
# Conditions Used: compounds at 100 μM, mean ± SD
Experimental Endpoint: inhibition at 100 µM (%)

Query :: Look up and report measured inhibition at 100 µM for this entry: `CS(=O)(=O)c1ccc(-c2csc(NN=Cc3cccnc3)n2)cc1`
Result :: 8.63

Query :: Look up and report measured inhibition at 100 µM for this entry: `Oc1ccc(-c2csc(NN=Cc3cccnc3)n2)cc1O`
Result :: 40.6

Query :: Look up and report measured inhibition at 100 µM for this entry: `Clc1ccc(-c2csc(NN=Cc3ccccn3)n2)cc1Cl`
Result :: 30.3

Query :: Look up and report measured inhibition at 100 µM for this entry: `C(=NNc1nc(-c2ccc(-c3ccccc3)cc2)cs1)c1ccccn1`
Result :: 23.1

Query :: Look up and report measured inhibition at 100 µM for this entry: `COc1ccc(OC)c(-c2csc(NN=Cc3cccnc3)n2)c1`
Result :: 70.8

1: C(=NNc1nc(-c2ccc(-c3ccccc3)cc2)cs1)c1ccncc1
2: Oc1ccc(-c2csc(NN=Cc3ccncc3)n2)cc1O
Query :: Between 1 and 2 , whose measured inhibition at 100 µM reads higher? Pick one and reply with its label.
Result :: 2
(2: 19%, 1: 9.4%)

* * *

# System: A549 cells
# Protocol Summary: Annexin V-FITC/propidium iodide apoptosis detection by flow cytometry
# Assay type: cell-based, human
# Conditions Used: IC50 dose, 24 h
Experimental Endpoint: Q1-LL viable cells (%)
Form entry: value (%) — number only.

Query :: Look up and report measured Q1-LL viable cells for this entry: `C(=NNc1nc(-c2ccc(-c3ccccc3)cc2)cs1)c1ccncc1`
Result :: 73.32

Query :: Look up and report measured Q1-LL viable cells for this entry: `Clc1ccc(-c2csc(NN=Cc3ccncc3)n2)cc1Cl`
Result :: 87.11

Query :: Look up and report measured Q1-LL viable cells for this entry: `CS(=O)(=O)c1ccc(-c2csc(NN=Cc3cccnc3)n2)cc1`
Result :: 88.98

Further cases:
Query :: Look up and report measured Q1-LL viable cells for this entry: `C(=NNc1nc(-c2ccc(-c3ccccc3)cc2)cs1)c1ccccn1`
Result :: 81.54

Query :: Look up and report measured Q1-LL viable cells for this entry: `Clc1ccc(-c2csc(NN=Cc3cccnc3)n2)cc1Cl`
Result :: 91.05

Query :: Look up and report measured Q1-LL viable cells for this entry: `CS(=O)(=O)c1ccc(-c2csc(NN=Cc3ccccn3)n2)cc1`
Result :: 90.44

* * *

# System: A549 cells
# Protocol Summary: Annexin V-FITC/propidium iodide apoptosis detection by flow cytometry
# Assay type: cell-based, human
# Conditions Used: IC50 dose, 24 h
Experimental Endpoint: Q1-UL necrotic cells (%)
Form entry: value (%) — number only.

Query :: Give Q1-UL necrotic cells for `C(=NNc1nc(-c2ccc(-c3ccccc3)cc2)cs1)c1ccncc1` tested on A549 cells.
Result :: 1.07

Query :: Give Q1-UL necrotic cells for N.N.[Cl][Pt][Cl] [Cisplatin, reference compound] tested on A549 cells.
Result :: 6.56

Query :: Give Q1-UL necrotic cells for `Clc1ccc(-c2csc(NN=Cc3ccncc3)n2)cc1Cl` tested on A549 cells.
Result :: 3.10

Query :: Give Q1-UL necrotic cells for `CS(=O)(=O)c1ccc(-c2csc(NN=Cc3cccnc3)n2)cc1` tested on A549 cells.
Result :: 0.98

Query :: Give Q1-UL necrotic cells for `Clc1ccc(-c2csc(NN=Cc3cccnc3)n2)cc1Cl` tested on A549 cells.
Result :: 1.68

Query :: Give Q1-UL necrotic cells for `CS(=O)(=O)c1ccc(-c2csc(NN=Cc3ccccn3)n2)cc1` tested on A549 cells.
Result :: 0.33

Next compound, Q1-UL necrotic cells to be filled in.
Query :: Give Q1-UL necrotic cells for `C(=NNc1nc(-c2ccc(-c3ccccc3)cc2)cs1)c1ccccn1` tested on A549 cells.
Result :: 0.64
